Readings of MIC for the listed compounds
Test system: Escherichia coli
Assay: Antibacterial activity against Escherichia coli ATCC 25922 assessed as growth inhibition incubated for 30 mins prior to inoculation measured after 18 hrs by broth microdilution method in presence of 40% mouse serum
Format: functional

### Prompt Could you please provide reported MIC for `NCCCOc1ccc(-n2cc(-c3ccc4ccc(-c5cn(-c6cc(OCCCN)c(OCCCN)c(OCCCN)c6)nn5)cc4c3)nn2)cc1OCCCN.O=C(O)C(F)(F)F.O=C(O)C(F)(F)F.O=C(O)C(F)(F)F.O=C(O)C(F)(F)F.O=C(O)C(F)(F)F` ? Thanks!
### Response 25 µg/mL

### Prompt Could you please provide reported MIC for `NCCCOc1cccc(-n2cc(-c3cccc(-c4cn(-c5cccc(OCCCN)c5)nn4)c3)nn2)c1.O=C(O)C(F)(F)F.O=C(O)C(F)(F)F` ? Thanks!
### Response 25 µg/mL

### Prompt Could you please provide reported MIC for `NCCCOc1cc(-n2cc(-c3ccc4ccc(-c5cn(-c6cc(OCCCN)c(OCCCN)c(OCCCN)c6)nn5)cc4c3)nn2)cc(OCCCN)c1OCCCN.O=C(O)C(F)(F)F.O=C(O)C(F)(F)F.O=C(O)C(F)(F)F.O=C(O)C(F)(F)F.O=C(O)C(F)(F)F.O=C(O)C(F)(F)F` ? Thanks!
### Response 25 µg/mL

### Prompt Could you please provide reported MIC for `NCCCOc1cc(OCCCN)cc(-n2cc(-c3ccc4ccc(-c5cn(-c6cc(OCCCN)cc(OCCCN)c6)nn5)cc4c3)nn2)c1.O=C(O)C(F)(F)F.O=C(O)C(F)(F)F.O=C(O)C(F)(F)F.O=C(O)C(F)(F)F` ? Thanks!
### Response 6.25 µg/mL

### Prompt Could you please provide reported MIC for `NCCCOc1ccc(-n2cc(-c3ccc4ccc(-c5cn(-c6ccc(OCCCN)c(OCCCN)c6)nn5)cc4c3)nn2)cc1OCCCN.O=C(O)C(F)(F)F.O=C(O)C(F)(F)F.O=C(O)C(F)(F)F.O=C(O)C(F)(F)F` ? Thanks!
### Response 3.13 µg/mL

---
### Prompt Could you please provide reported MIC for `NCCCOc1cc(OCCCN)cc(-n2cc(-c3ccc4c(ccc5cc(-c6cn(-c7cc(OCCCN)cc(OCCCN)c7)nn6)ccc54)c3)nn2)c1.O=C(O)C(F)(F)F.O=C(O)C(F)(F)F.O=C(O)C(F)(F)F.O=C(O)C(F)(F)F` ? Thanks!
### Response 12.5 µg/mL

### Prompt Could you please provide reported MIC for `NCCCOc1cccc(-n2cc(-c3ccc4ccc(-c5cn(-c6cccc(OCCCN)c6)nn5)cc4c3)nn2)c1.O=C(O)C(F)(F)F.O=C(O)C(F)(F)F` ? Thanks!
### Response > 50 µg/mL

### Prompt Could you please provide reported MIC for `NCCCOc1cc(C#Cc2ccc3ccc(C#Cc4cc(OCCCN)cc(OCCCN)c4)cc3c2)cc(OCCCN)c1.O=C(O)C(F)(F)F.O=C(O)C(F)(F)F.O=C(O)C(F)(F)F.O=C(O)C(F)(F)F` ? Thanks!
### Response 12.5 µg/mL

### Prompt Could you please provide reported MIC for `NCCCOc1ccc(-n2cc(-c3cccc(-c4cn(-c5ccc(OCCCN)c(OCCCN)c5)nn4)c3)nn2)cc1OCCCN.O=C(O)C(F)(F)F.O=C(O)C(F)(F)F.O=C(O)C(F)(F)F.O=C(O)C(F)(F)F` ? Thanks!
### Response 6.25 µg/mL

### Prompt Could you please provide reported MIC for `NCCCOc1cc(OCCCN)cc(-c2ccc3ccc(-c4cc(OCCCN)cc(OCCCN)c4)cc3c2)c1.O=C(O)C(F)(F)F.O=C(O)C(F)(F)F.O=C(O)C(F)(F)F.O=C(O)C(F)(F)F` ? Thanks!
### Response 25 µg/mL

---

Test: Hemolytic activity in human RBC assessed as release of hamoglobin after 1 hr
Type: ADME, cell-based, Erythrocyte
Conditions: human red blood cells
// boundary case: HC50 at 1 h equal to 90 µg/mL maps to NO; strictly smaller maps to YES

Recorded results for 4 compounds are shown here.
### Prompt # strict comparison: is reported HC50 at 1 h < 90 µg/mL? input = `NCCCOc1ccc(-n2cc(-c3ccc4ccc(-c5cn(-c6cc(OCCCN)c(OCCCN)c(OCCCN)c6)nn5)cc4c3)nn2)cc1OCCCN.O=C(O)C(F)(F)F.O=C(O)C(F)(F)F.O=C(O)C(F)(F)F.O=C(O)C(F)(F)F.O=C(O)C(F)(F)F`
### Response NO

### Prompt # strict comparison: is reported HC50 at 1 h < 90 µg/mL? input = `NCCCOc1cc(-n2cc(-c3ccc4ccc(-c5cn(-c6cc(OCCCN)c(OCCCN)c(OCCCN)c6)nn5)cc4c3)nn2)cc(OCCCN)c1OCCCN.O=C(O)C(F)(F)F.O=C(O)C(F)(F)F.O=C(O)C(F)(F)F.O=C(O)C(F)(F)F.O=C(O)C(F)(F)F.O=C(O)C(F)(F)F`
### Response NO

### Prompt # strict comparison: is reported HC50 at 1 h < 90 µg/mL? input = `NCCCOc1cc(OCCCN)cc(-n2cc(-c3ccc4ccc(-c5cn(-c6cc(OCCCN)cc(OCCCN)c6)nn5)cc4c3)nn2)c1.O=C(O)C(F)(F)F.O=C(O)C(F)(F)F.O=C(O)C(F)(F)F.O=C(O)C(F)(F)F`
### Response NO

### Prompt # strict comparison: is reported HC50 at 1 h < 90 µg/mL? input = `NCCCOc1ccc(-n2cc(-c3ccc4ccc(-c5cn(-c6ccc(OCCCN)c(OCCCN)c6)nn5)cc4c3)nn2)cc1OCCCN.O=C(O)C(F)(F)F.O=C(O)C(F)(F)F.O=C(O)C(F)(F)F.O=C(O)C(F)(F)F`
### Response YES

---
### Prompt # strict comparison: is reported HC50 at 1 h < 90 µg/mL? input = `NCCCOc1cc(OCCCN)cc(-c2ccc3ccc(-c4cc(OCCCN)cc(OCCCN)c4)cc3c2)c1.O=C(O)C(F)(F)F.O=C(O)C(F)(F)F.O=C(O)C(F)(F)F.O=C(O)C(F)(F)F`
### Response NO

### Prompt # strict comparison: is reported HC50 at 1 h < 90 µg/mL? input = `NCCCOc1cc(OCCCN)cc(-n2cc(-c3ccc4c(ccc5cc(-c6cn(-c7cc(OCCCN)cc(OCCCN)c7)nn6)ccc54)c3)nn2)c1.O=C(O)C(F)(F)F.O=C(O)C(F)(F)F.O=C(O)C(F)(F)F.O=C(O)C(F)(F)F`
### Response NO

### Prompt # strict comparison: is reported HC50 at 1 h < 90 µg/mL? input = `NCCCOc1cc(C#Cc2ccc3ccc(C#Cc4cc(OCCCN)cc(OCCCN)c4)cc3c2)cc(OCCCN)c1.O=C(O)C(F)(F)F.O=C(O)C(F)(F)F.O=C(O)C(F)(F)F.O=C(O)C(F)(F)F`
### Response YES

### Prompt # strict comparison: is reported HC50 at 1 h < 90 µg/mL? input = `NCCCOc1ccc(-n2cc(-c3cccc(-c4cn(-c5ccc(OCCCN)c(OCCCN)c5)nn4)c3)nn2)cc1OCCCN.O=C(O)C(F)(F)F.O=C(O)C(F)(F)F.O=C(O)C(F)(F)F.O=C(O)C(F)(F)F`
### Response NO

---

Test system: Enterococcus faecalis
Assay: Antibacterial activity against Enterococcus faecalis ATCC 29212 assessed as growth inhibition after 18 hrs by broth microdilution method in absence of 40% mouse serum
Format: functional
Conditions: ATCC 29212, 18 h
quantity_name: MIC (mg/L)
Express it in mg/L; write the number only.

### Prompt Give Enterococcus faecalis MIC for the following compound: `NCCCOc1cc(OCCCN)cc(-n2cc(-c3ccc4ccc(-c5cn(-c6cc(OCCCN)cc(OCCCN)c6)nn5)cc4c3)nn2)c1.O=C(O)C(F)(F)F.O=C(O)C(F)(F)F.O=C(O)C(F)(F)F.O=C(O)C(F)(F)F`
### Response 25

### Prompt Give Enterococcus faecalis MIC for the following compound: `NCCCOc1cc(-n2cc(-c3ccc4ccc(-c5cn(-c6cc(OCCCN)c(OCCCN)c(OCCCN)c6)nn5)cc4c3)nn2)cc(OCCCN)c1OCCCN.O=C(O)C(F)(F)F.O=C(O)C(F)(F)F.O=C(O)C(F)(F)F.O=C(O)C(F)(F)F.O=C(O)C(F)(F)F.O=C(O)C(F)(F)F`
### Response 50

### Prompt Give Enterococcus faecalis MIC for the following compound: `NCCCOc1ccc(-n2cc(-c3ccc4ccc(-c5cn(-c6ccc(OCCCN)c(OCCCN)c6)nn5)cc4c3)nn2)cc1OCCCN.O=C(O)C(F)(F)F.O=C(O)C(F)(F)F.O=C(O)C(F)(F)F.O=C(O)C(F)(F)F`
### Response 25

In the following, a different compound is considered.
### Prompt Give Enterococcus faecalis MIC for the following compound: `NCCCOc1cccc(-n2cc(-c3cccc(-c4cn(-c5cccc(OCCCN)c5)nn4)c3)nn2)c1.O=C(O)C(F)(F)F.O=C(O)C(F)(F)F`
### Response 25
